The origin of these recorded values is patent US12624042B2.

# protocol.details: Caco-2 membrane permeability and efflux test
# Format: in vitro ADME
# study.conditions: human; efflux ratio, Caco-2; read-out: Papp(B-A)/Papp(A-B)
quantity.name: efflux ratio at 90 min

[
  {
    "compound": "Nc1ncnc2c1c(-c1ccc(Oc3ccccc3)cc1)nn2C1CCCN(CCOCCOCCOCCOCCNc2cccc3c2C(=O)N(C2CCC(=O)NC2=O)C3=O)C1 (centres unmarked) [Control compound 2]",
    "recorded.measurement": 18.1
  },
  {
    "compound": "Nc1ncnc2c1c(-c1ccc(Oc3ccccc3)cc1)nn2C1CCN(CCCCCOCCOc2ccc3c(c2)CN(C2CCC(=O)NC2=O)C3=O)CC1 (centres unmarked)",
    "recorded.measurement": 1.32
  },
  {
    "compound": "Nc1ncnc2c1c(-c1ccc(Oc3ccccc3)cc1)nn2C1CCN(CCOCCOCCNc2ccc3c(c2)C(=O)N(C2CCC(=O)NC2=O)C3=O)CC1 (centres unmarked) [Control compound 3]",
    "recorded.measurement": 15.9
  },
  {
    "compound": "Nc1ncnc2c1c(-c1ccc(Oc3ccccc3)cc1)nn2C1CCN(CCOCCOCCNc2ccc3c(c2)CN(C2CCC(=O)NC2=O)C3=O)CC1 (centres unmarked) [Control compound 1]",
    "recorded.measurement": 33
  },
  {
    "compound": "Nc1ncnc2c1c(-c1ccc(Oc3ccccc3)cc1)nn2C1CCN(CCOCCCCCOc2ccc3c(c2)CN(C2CCC(=O)NC2=O)C3=O)CC1 (centres unmarked)",
    "recorded.measurement": 1.18
  }
]
